I'd appreciate it if you could supply MFI values for the items below.
- study.target: T1, LILRB2 chimeric receptor on LILRB2 reporter cells (extracellular domain of LILRB2 fused with … (UniProt Q8N423 22-460))
- T1 construct: extracellular domain;domain: transmembrane/intracellular domains; associates with DAP12; also called LILRB2-expressing reporter cells
- protocol.description: flow cytometry, reporter cells
Give bare numbers.

B2-7 (antibody, V domains shown, also called B2-7_HC; B2-7_LC) VH: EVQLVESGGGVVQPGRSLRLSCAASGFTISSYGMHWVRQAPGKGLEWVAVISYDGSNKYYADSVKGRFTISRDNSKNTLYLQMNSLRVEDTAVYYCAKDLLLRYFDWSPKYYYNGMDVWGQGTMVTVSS VL: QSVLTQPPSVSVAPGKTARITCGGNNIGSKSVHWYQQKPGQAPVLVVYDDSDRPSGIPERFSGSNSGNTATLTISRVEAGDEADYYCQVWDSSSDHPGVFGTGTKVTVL: 1160

Quick request: MFI for each listed item, please.
1. B2-17 (antibody, V domains shown, also called B2-17_HC; B2-17_LC) VH: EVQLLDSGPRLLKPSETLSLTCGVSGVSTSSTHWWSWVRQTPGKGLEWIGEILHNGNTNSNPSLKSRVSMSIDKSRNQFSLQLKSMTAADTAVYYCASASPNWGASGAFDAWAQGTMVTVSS VL: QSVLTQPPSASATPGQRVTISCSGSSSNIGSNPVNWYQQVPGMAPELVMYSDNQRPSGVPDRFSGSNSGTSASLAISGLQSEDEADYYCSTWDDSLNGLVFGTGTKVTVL
2. B2-16 (antibody, V domains shown, also called B2-16_HC; B2-16_LC) VH: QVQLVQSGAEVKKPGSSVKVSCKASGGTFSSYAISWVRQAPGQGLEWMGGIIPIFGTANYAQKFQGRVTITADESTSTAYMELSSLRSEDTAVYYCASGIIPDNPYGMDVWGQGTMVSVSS VL: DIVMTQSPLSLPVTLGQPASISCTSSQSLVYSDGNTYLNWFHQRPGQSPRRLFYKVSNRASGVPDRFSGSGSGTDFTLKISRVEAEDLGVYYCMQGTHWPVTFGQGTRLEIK

[out]
[1100, 940]
